# Assay Remarks: Safety and tolerability: treatment-emergent adverse events by intervention
# Type: in vivo, human
# Experimental Conditions: TEAE; intervention arm = label; P-CAB arms co-administered with atorvastatin 40 mg, 7 days
Measurement Name: Blood bilirubin increased: percentage of subjects (%)
Numbers only; they are read as %.

Endpoint output: Blood bilirubin increased: percentage of subjects of Cc1nc2cc(C(=O)N(C)C)cc(O[C@H]3CCOc4cc(F)cc(F)c43)c2[nH]1 [Tegoprazan, tegoprazan] . Value? 6.7

Fill in: Blood bilirubin increased: percentage of subjects of CC(C)c1c(C(=O)Nc2ccccc2)c(-c2ccccc2)c(-c2ccc(F)cc2)n1CC[C@@H](O)C[C@@H](O)CC(=O)O [Reference 1, atorvastatin] is ___ 3.2

Fill in the blank: the reported Blood bilirubin increased: percentage of subjects of CNCc1cc(-c2ccccc2F)n(S(=O)(=O)c2cccnc2)c1 [Vonoprazan, vonoprazan] is ____. 3.4

Need Blood bilirubin increased: percentage of subjects, item CC(C)c1c(C(=O)Nc2ccccc2)c(-c2ccccc2)c(-c2ccc(F)cc2)n1CC[C@@H](O)C[C@@H](O)CC(=O)O [Reference 2, atorvastatin] 7.1
